- Target: EED (Homo sapiens, UniProt O75530)
- Construct: 2×10^5 Hela cells were injected into a 12-well plate; endogenous in cells; host or cells: HeLa
- Sequence (O75530 whole entry): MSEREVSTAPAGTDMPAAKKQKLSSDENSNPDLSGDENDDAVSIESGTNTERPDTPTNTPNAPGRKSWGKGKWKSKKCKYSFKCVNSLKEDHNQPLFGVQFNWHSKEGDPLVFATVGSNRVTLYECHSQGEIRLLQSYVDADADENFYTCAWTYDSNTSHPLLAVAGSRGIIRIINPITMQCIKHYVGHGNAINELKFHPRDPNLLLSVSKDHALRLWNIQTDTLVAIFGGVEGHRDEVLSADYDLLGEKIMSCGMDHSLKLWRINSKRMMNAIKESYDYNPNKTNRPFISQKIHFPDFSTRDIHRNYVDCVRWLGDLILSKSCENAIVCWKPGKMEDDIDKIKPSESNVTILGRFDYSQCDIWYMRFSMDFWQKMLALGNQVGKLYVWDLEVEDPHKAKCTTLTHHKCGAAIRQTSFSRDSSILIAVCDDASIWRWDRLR
- Assay protocol: EED Proteolytic Activity Evaluation 2 (western blot, Hela cells)
- Format: cell-based
- Cond: 1 nM, 10 nM, 100 nM and 1000 nM, 20 hours of treatment
Measurement label: EED degradation rate (Maximum EED degradation rate)

# count of solved cases: 4
[[record]]
compound = "Cc1cccc(F)c1CN1C[C@H](c2ccc(N3CCN(C(=O)CCCCCCCNc4ccc5c(c4)C(=O)N(C4CCC(=O)NC4=O)C5=O)CC3)cc2)[C@@H](N(C)C)C1 (some centres unmarked)"
meas_value = "B (B: 25-50%)"

[[record]]
compound = "Cc1cccc(F)c1CN1C[C@H](c2ccc(N3CCN(C(=O)CCC4CCN(c5ccc6c(c5)C(=O)N(C5CCC(=O)NC5=O)C6=O)CC4)CC3)cc2)[C@H](N(C)C)C1 (some centres unmarked)"
meas_value = "A (A: >50%)"

[[record]]
compound = "Cc1cccc(F)c1CN1C[C@H](c2ccc(N3CCN(C(=O)CC4CCN(C(=O)COc5cccc6c5C(=O)N(C5CCC(=O)NC5=O)C6=O)CC4)CC3)cc2)[C@@H](N(C)C)C1 (some centres unmarked)"
meas_value = "A (A: >50%)"

[[record]]
compound = "Cc1cccc(F)c1CN1C[C@H](c2ccc(N3CCN(C(=O)CCC4CCN(C(=O)COc5ccc6c(c5)C(=O)N(C5CCC(=O)NC5=O)C6=O)CC4)CC3)cc2)[C@@H](N(C)C)C1 (some centres unmarked)"
meas_value = "B (B: 25-50%)"


Query compound follows.
Can you look up the measured EED degradation rate (Maximum EED degradation rate) of Cc1cccc(F)c1CN1C[C@H](c2ccc(N3CCN(CCC4CCN(C(=O)COc5ccc6c(c5)C(=O)N(C5CCC(=O)NC5=O)C6=O)CC4)CC3)cc2)[C@@H](N(C)C)C1 (some centres unmarked) for me?
A (A: >50%)
